Cited source: patent US10858365B2

molecular target: hA2b (Homo sapiens (Human)); experiment: cAMP inhibition assay in hA2b/CHO cells; assay type: cell-based; settings: adenosine stimulation, read-out: cAMP & FLIPR IC50 (nM) hA2b
Sequence (P29275 whole entry): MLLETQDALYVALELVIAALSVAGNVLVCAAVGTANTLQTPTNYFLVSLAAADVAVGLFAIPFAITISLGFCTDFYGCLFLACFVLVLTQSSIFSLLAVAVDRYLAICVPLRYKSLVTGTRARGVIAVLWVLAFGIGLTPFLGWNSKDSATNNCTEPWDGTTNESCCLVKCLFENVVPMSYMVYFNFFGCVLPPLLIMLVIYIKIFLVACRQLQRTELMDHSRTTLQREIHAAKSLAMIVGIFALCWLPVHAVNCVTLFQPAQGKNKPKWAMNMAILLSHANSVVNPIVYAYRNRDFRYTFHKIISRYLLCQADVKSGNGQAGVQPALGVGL
Quick reference for IC50 among some compounds
The response must be a number in nM with no trailing unit.

COMPOUND	IC50 / nM
COCCc1nc2c(-c3ccc4ncc(C)n4c3)c(-c3ccc(F)cc3)nc(N)n2n1 [Example 114]	40.9
Nc1nc(-c2ccc(F)cc2)c(-c2ccc3nccn3c2)c2nc(Cc3ncccc3OC(F)F)nn12 [Example 73]	4.8

Record summary for Nc1nc(-c2ccc(F)cc2)c(-c2ccc3nccn3c2)c2nc(Cc3ncccc3F)nn12 [Example 32] : reported IC50 = 19

IC50 reported for this compound Cc1cnc2ccc(-c3c(-c4ncco4)nc(N)n4nc(Cc5ncccc5F)nc34)cn12 [Example 99] : 21
